List of EC50 values.
biological target: 5-HT4 receptor (Rattus norvegicus); construct: One 2 cm segment of intrathoracic esophagus proximal to the diaphragm was removed from male rats; assay: cell-based; settings: carbachol (3 μM)-contracted rat TMM, 37° C., tissues from 5 rats; read-out: 5-HT4 Agonism (Rat TMM) In Vitro Assay: EC50 values
Sequence (Q62758 whole entry): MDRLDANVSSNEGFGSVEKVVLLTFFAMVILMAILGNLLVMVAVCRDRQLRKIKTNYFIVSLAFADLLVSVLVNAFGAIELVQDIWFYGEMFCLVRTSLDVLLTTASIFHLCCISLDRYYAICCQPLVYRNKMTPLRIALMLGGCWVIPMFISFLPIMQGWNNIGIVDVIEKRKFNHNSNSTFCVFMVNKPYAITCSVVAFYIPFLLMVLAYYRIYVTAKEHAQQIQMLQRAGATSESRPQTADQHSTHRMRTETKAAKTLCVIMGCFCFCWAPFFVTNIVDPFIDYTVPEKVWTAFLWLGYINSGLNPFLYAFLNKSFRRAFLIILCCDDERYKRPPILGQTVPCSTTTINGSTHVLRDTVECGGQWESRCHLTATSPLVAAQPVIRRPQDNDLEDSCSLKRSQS
Structures can show the parent of a compound that is named as a salt.
Field format: number, assumed nM, no unit text.

* COc1cc(N)c(Cl)cc1C(=O)OC1C2CC3CC1CN3C2 (centres unmarked) | 216
* COc1cc(N)c(Cl)cc1C(=O)N[C@H]1[C@@H]2C[C@@H]3C[C@H]1CN3C2 [Example 3] | 2230
* COc1cc(N)c(Cl)cc1C(=O)NC[C@@H]1[C@@H]2C[C@@H]3C[C@H]1CN3C2 [Example 11, monohydrochloride] | 660
* COc1cc(N)c(Cl)cc1C(=O)NC[C@H]1[C@@H]2C[C@@H]3C[C@H]1CN3C2 [Example 14, monohydrochloride] | 421
* COc1cc(NC(C)=O)c(Cl)cc1C(=O)N[C@H]1[C@@H]2C[C@@H]3C[C@H]1CN3C2 | 3340

Reported EC50 for COc1cc(N)c(Cl)cc1C(=O)NCC1C2CC3CC1CN3C2 (centres unmarked) : what is it? 397

Reported EC50 for COc1cc(N)c(Cl)cc1C(=O)N[C@@H]1[C@@H]2C[C@@H]3C[C@H]1CN3C2 [Example 5] : what is it? 705
